measure-name: melting point

Using the record for CCOC(=O)Cn1c(=O)c(=O)[nH]c2cc([N+](=O)[O-])c(-n3ccc(C(=O)NCc4ccccc4)c3)cc21 [Example 8] , state its measured melting point.
223 °C (dec.)

Tell us which melting point value is on record for CCOC(=O)Cn1c(=O)c(=O)[nH]c2ccc3ccc(-n4ccc(C(=O)O)c4)cc3c21 [Example 3]
292 to 295 °C

Answer with the recorded melting point of O=C(O)Cn1c(=O)c(=O)[nH]c2cc([N+](=O)[O-])c(-n3ccc(C(=O)NCc4ccc([N+](=O)[O-])cc4)c3)cc21 only.
> 210 °C (dec.)

Using the record for O=C(O)Cn1c(=O)c(=O)[nH]c2ccc3c(-n4ccc(C(=O)O)c4)cccc3c21 [Example 15] , state its measured melting point.
> 300 °C

For the molecule O=C(O)Cn1c(=O)c(=O)[nH]c2cc([N+](=O)[O-])c(-n3ccc(C(=O)NCc4ccncc4)c3)cc21 [Example 22] , give its measured melting point value.
> 300 °C

Give me measured melting point, please, for this molecule: O=C(O)Cn1c(=O)c(=O)[nH]c2cc([N+](=O)[O-])c(-n3ccc(C(=O)N4CCN(CCc5ccccc5)CC4)c3)cc21 [Example 20]
> 250 °C (dec.)

Give a short answer stating reported melting point for O=C(O)Cn1c(=O)c(=O)[nH]c2cc([N+](=O)[O-])c(-n3ccc(C(=O)NCCCc4ccccc4)c3)cc21 [Example 21] .
224 to 227 °C (dec.)

Check the records and state melting point for CCOC(=O)Cn1c(=O)c(=O)[nH]c2cc([N+](=O)[O-])c(-n3ccc(C(=O)NCc4ccc([N+](=O)[O-])cc4)c3)cc21
> 300 °C

// Input: CCOC(=O)Cn1c(=O)c(=O)[nH]c2cc([N+](=O)[O-])c(-n3ccc(C(=O)NCc4ccncc4)c3)cc21 [Example 11] . Output its melting point only.
> 300 °C
